# assayed_system: Pantothenate synthetase (Mycobacterium tuberculosis (strain ATCC 25618 / H37Rv))
# test_summary: Coupled enzyme confirmation of inhibitors against recombinant Mtb PanC (AID 375);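 note: 0% = full reaction with vehicle and 100% = no enzyme background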
# recorded_conditions: coupled enzyme assay; at 10 µM, stronger effect = higher value
inhibition values, listed per item
Output spec: scalar in %, unitless text.

Q: Please provide the recorded inhibition for CC12CN3CC(C)(CN(C1)C3c1ccc(Cl)cc1Cl)C2=O (configuration not stated) , tested on Pantothenate synthetase (Mycobacterium tuberculosis (strain ATCC 25618 / H37Rv)).
Ans: 0

More entries:
Q: Please provide the recorded inhibition for CCCCC(=O)NCCc1ccc(S(N)(=O)=O)cc1 , tested on Pantothenate synthetase (Mycobacterium tuberculosis (strain ATCC 25618 / H37Rv)).
Ans: 0

Q: Please provide the recorded inhibition for OC(COc1ccc2ccccc2c1)CN1CCOCC1 (configuration not stated) , tested on Pantothenate synthetase (Mycobacterium tuberculosis (strain ATCC 25618 / H37Rv)).
Ans: 0

Q: Please provide the recorded inhibition for O=C(Nc1ccccc1)N(CCCN1CCOCC1)Cc1cc2cc3c(cc2[nH]c1=O)OCCO3 , tested on Pantothenate synthetase (Mycobacterium tuberculosis (strain ATCC 25618 / H37Rv)).
Ans: 0

Q: Please provide the recorded inhibition for Cn1c(=O)oc2cc(S(=O)(=O)N3CCC(C(=O)Nc4ccc(OC(F)(F)F)cc4)CC3)ccc21 , tested on Pantothenate synthetase (Mycobacterium tuberculosis (strain ATCC 25618 / H37Rv)).
Ans: 0

Q: Please provide the recorded inhibition for CSCSC1=C(C#N)C(c2ccc(Cl)cc2)C(C(C)=O)=C(C)N1 (configuration not stated) , tested on Pantothenate synthetase (Mycobacterium tuberculosis (strain ATCC 25618 / H37Rv)).
Ans: 0

Q: Please provide the recorded inhibition for c1ccc(Cn2ccnc2)cc1 , tested on Pantothenate synthetase (Mycobacterium tuberculosis (strain ATCC 25618 / H37Rv)).
Ans: 0

Q: Please provide the recorded inhibition for COc1ccc(S(=O)(=O)NCCCN2CCOCC2)c2ccccc12 , tested on Pantothenate synthetase (Mycobacterium tuberculosis (strain ATCC 25618 / H37Rv)).
Ans: 0

Q: Please provide the recorded inhibition for OC1C=CSc2nc3ccccc3n21 (configuration not stated) , tested on Pantothenate synthetase (Mycobacterium tuberculosis (strain ATCC 25618 / H37Rv)).
Ans: 0

Q: Please provide the recorded inhibition for O=C(O)Cc1cc(I)c(Oc2ccc(O)c(I)c2)c(I)c1 , tested on Pantothenate synthetase (Mycobacterium tuberculosis (strain ATCC 25618 / H37Rv)).
Ans: 0

Q: Please provide the recorded inhibition for Cn1c(=O)n(C)c2cc(NC(=O)C(F)(F)F)ccc21 , tested on Pantothenate synthetase (Mycobacterium tuberculosis (strain ATCC 25618 / H37Rv)).
Ans: 0

Q: Please provide the recorded inhibition for COc1cc(/C=C/C(=O)CC(=O)/C=C/c2ccc(O)c(OC)c2)ccc1O , tested on Pantothenate synthetase (Mycobacterium tuberculosis (strain ATCC 25618 / H37Rv)).
Ans: 10
